Tested on: Rhinovirus (HRV-1059)-infected H1 Hela cells
Assay notes: Anti-rhinovirus (HRV-1059) activity test, CellTiter-Glo cell viability
Type: cell-based, rhinovirus HRV-1059 strain
Condition label: Enterovirus, HRV1059, H1-HeLa, 144 h, 100 TCID50 virus per well, 6 days at 37° C., read-out: IC50 Anti-HRV (H1Hela)
Value kind: pIC50
// scale note: pIC50 = -log10(conc_M); give the bare number

Checklist item: pIC50 tested on Rhinovirus (HRV-1059)-infected H1 Hela cells, entry CC(=O)N[C@@H]1C(OC(=O)c2ccccc2)C(N=[N+]=[N-])[C@@](N=[N+]=[N-])(C(=O)O)OC1[C@H](OC(=O)c1ccccc1)[C@@H](COC(=O)c1ccccc1)OC(=O)c1ccccc1 (stereo partly drawn) , value?
4.88

Checklist item: pIC50 tested on Rhinovirus (HRV-1059)-infected H1 Hela cells, entry COC(=O)[C@]1(N=[N+]=[N-])OC([C@@H](COC(C)=O)OC(C)=O)[C@H](OC(C)=O)C(OC(C)=O)C1N=[N+]=[N-] (stereo partly drawn) [Compound 10a] , value?
4.97

Turning now to a further compound:
Checklist item: pIC50 tested on Rhinovirus (HRV-1059)-infected H1 Hela cells, entry CC1(C)OC[C@H](C2O[C@](N=[N+]=[N-])(C(=O)O)C(N=[N+]=[N-])C(O)[C@H]2O)O1 (stereo partly drawn) , value?
4.61

---

System: Zika virus-infected BHK cells
Assay notes: Anti-Zika (ZIKV) virus activity test, CellTiter-Glo cell viability
Assay type: cell-based, Zika virus SZ-SMGC-01 strain
Condition label: Zika virus, BHK, 216 h, 100 TCID50 virus per well, 9 days at 37° C.
Value kind: IC50 (µM)
Unit µM implied. Number only.

Worked cases, IC50 given:
// IC50 lookup, key: COC(=O)[C@]1(N=[N+]=[N-])OC([C@H](OC(=O)c2ccccc2)[C@@H](COC(=O)c2ccccc2)OC(=O)c2ccccc2)[C@H](NC(C)=O)C(OC(=O)c2ccccc2)C1N=[N+]=[N-] (stereo partly shown)
10.6

// IC50 lookup, key: COC(=O)[C@@]1(N=[N+]=[N-])OC([C@H](OC(=O)c2ccccc2)[C@@H](COC(=O)c2ccccc2)OC(=O)c2ccccc2)[C@H](NC(C)=O)C(OC(=O)c2ccccc2)C1N (stereo partly shown)
14.6

// IC50 lookup, key: COC(=O)[C@@]1(N=[N+]=[N-])OC([C@H](O[Si](C)(C)C(C)(C)C)[C@H]2COC(C)(C)O2)[C@H](NC(C)=O)C(O[Si](C)(C)C(C)(C)C)C1N=[N+]=[N-] (single isomer, unassigned)
1.41

// IC50 lookup, key: CC(=O)N[C@@H]1C(OC(=O)c2ccccc2)C(N=[N+]=[N-])[C@@](N=[N+]=[N-])(C(=O)O)OC1[C@H](OC(=O)c1ccccc1)[C@@H](COC(=O)c1ccccc1)OC(=O)c1ccccc1 (stereo partly shown)
20

Turning now to a further molecule:
// IC50 lookup, key: COC(=O)[C@@]1(N=[N+]=[N-])OC([C@H](OC(=O)c2ccccc2)[C@@H](COC(=O)c2ccccc2)OC(=O)c2ccccc2)[C@H](NC(C)=O)C(OC(=O)c2ccccc2)C1N=[N+]=[N-] (stereo partly shown)
21.7

---

Listed here: items and their measured IC50.
Test system: Rhinovirus (HRV-1059)-infected H1 Hela cells
Assay notes: Anti-rhinovirus (HRV-1059) activity test, CellTiter-Glo cell viability
Assay type: cell-based, rhinovirus HRV-1059 strain
Condition label: 100 TCID50 virus per well, 6 days at 37° C., read-out: IC50 Anti-HRV (H1Hela)
Unit µM implied. Number only.

// IC50 lookup, key: COC(=O)[C@@]1(N=[N+]=[N-])OC([C@H](O[Si](C)(C)C(C)(C)C)[C@H]2COC(C)(C)O2)[C@H](NC(C)=O)C(O[Si](C)(C)C(C)(C)C)C1N=[N+]=[N-] (single isomer, unassigned) [Compound 4a]
4.58

***
// IC50 lookup, key: C#C[C@@]1(O)[C@H](O)[C@@H](CO)O[C@H]1n1ccc2c(N)ncnc21 [NITD008, reference compound]
0.05

// IC50 lookup, key: COC(=O)[C@@]1(N=[N+]=[N-])OC([C@H](O[Si](C)(C)C(C)(C)C)[C@H]2COC(C)(C)O2)[C@H](NC(C)=O)C(O[Si](C)(C)C(C)(C)C)C1N=[N+]=[N-] (single isomer, unassigned) [Compound 4b]
18.9

---

System: Zika virus-infected BHK cells
Assay notes: Anti-Zika (ZIKV) virus activity test, CellTiter-Glo cell viability
Type: cell-based, Zika virus SZ-SMGC-01 strain
Condition label: 100 TCID50 virus per well, 9 days at 37° C.
Value kind: pIC50
// scale note: pIC50 = -log10(conc_M); give the bare number

Worked cases, pIC50 given:
// pIC50 lookup, key: COC(=O)[C@@]1(N=[N+]=[N-])OC([C@H](O[Si](C)(C)C(C)(C)C)[C@H]2COC(C)(C)O2)[C@H](NC(C)=O)C(O[Si](C)(C)C(C)(C)C)C1N=[N+]=[N-] (single isomer, unassigned)
5.60

// pIC50 lookup, key: COC(=O)[C@]1(N=[N+]=[N-])OC([C@H](OC(=O)c2ccccc2)[C@@H](COC(=O)c2ccccc2)OC(=O)c2ccccc2)[C@H](NC(C)=O)C(OC(=O)c2ccccc2)C1N=[N+]=[N-] (stereo partly shown)
4.99

// pIC50 lookup, key: COC(=O)[C@@]1(N=[N+]=[N-])OC([C@H](OC(=O)c2ccccc2)[C@@H](COC(=O)c2ccccc2)OC(=O)c2ccccc2)[C@H](NC(C)=O)C(OC(=O)c2ccccc2)C1N=[N+]=[N-] (stereo partly shown)
4.96

Turning now to a further compound:
// pIC50 lookup, key: C#C[C@@]1(O)[C@H](O)[C@@H](CO)O[C@H]1n1ccc2c(N)ncnc21 [NITD008, reference compound]
6.00

---

System: Rhinovirus (HRV-1059)-infected H1 Hela cells
Assay notes: Anti-rhinovirus (HRV-1059) activity test, CellTiter-Glo cell viability
Type: cell-based, rhinovirus HRV-1059 strain
Condition label: Enterovirus, HRV1059, H1-HeLa, 144 h, 100 TCID50 virus per well, 6 days at 37° C., read-out: IC50 Anti-HRV (H1Hela)
Value kind: IC50

Worked cases, IC50 given:
// IC50 lookup, key: COC(=O)[C@@]1(N=[N+]=[N-])OC([C@H](OC(=O)c2ccccc2)[C@@H](COC(=O)c2ccccc2)OC(=O)c2ccccc2)[C@H](NC(C)=O)C(OC(=O)c2ccccc2)C1N (stereo partly drawn)
> 200 µM

// IC50 lookup, key: COC(=O)[C@]1(N=[N+]=[N-])OC([C@H](OC(=O)c2ccccc2)[C@@H](COC(=O)c2ccccc2)OC(=O)c2ccccc2)[C@H](NC(C)=O)C(OC(=O)c2ccccc2)C1N=[N+]=[N-] (stereo partly drawn)
> 200 µM

Turning now to a further compound:
// IC50 lookup, key: COC(=O)[C@@]1(N=[N+]=[N-])OC([C@H](OC(=O)c2ccccc2)[C@@H](COC(=O)c2ccccc2)OC(=O)c2ccccc2)[C@H](NC(C)=O)C(OC(=O)c2ccccc2)C1N=[N+]=[N-] (stereo partly drawn)
> 200 µM
